observable: melting point

Below are worked cases with known answers.
[
  {
    "chemicalString": "O=C(O)CCc1ccc(OCc2ccnc(-c3c(F)cc(F)cc3F)n2)cc1",
    "melting point": "143.8 to 144.1 °C"
  },
  {
    "chemicalString": "O=C(O)CCc1ccc(OCc2ccnc(-c3ccc(F)cc3)n2)cc1",
    "melting point": "167.2 to 168 °C"
  },
  {
    "chemicalString": "O=C(O)CCc1ccc(OCc2ccnc(-c3ccc(Cl)cc3)n2)cc1",
    "melting point": "168.3 to 169.4 °C"
  },
  {
    "chemicalString": "O=C(O)CCc1ccc(OCc2ccnc(-c3ccc(C(F)(F)F)cc3)n2)cc1",
    "melting point": "146.6 to 147.5 °C"
  }
]

# melting point lookup, item Cc1cc(SCc2ccnc(-c3ccc(F)cc3)n2)ccc1OC(C)(C)C(=O)O
139.5 to 140.4 °C

And then Cc1cc(SCc2ccnc(-c3ccc(C(F)(F)F)cc3)n2)ccc1OCC(=O)O , what is it?
159.3 to 160.2 °C

Next compound: O=C(O)CCc1ccc(OCc2ccnc(-c3ccc(Br)cc3)n2)cc1
168 to 168.8 °C

###

Target: human PPARδ (Homo sapiens, UniProt Q03181)
Construct: expressed in transfected cells; host or cells: HEK-293 cells (transient co-transfection)
Sequence (Q03181 211-439 limits assumed): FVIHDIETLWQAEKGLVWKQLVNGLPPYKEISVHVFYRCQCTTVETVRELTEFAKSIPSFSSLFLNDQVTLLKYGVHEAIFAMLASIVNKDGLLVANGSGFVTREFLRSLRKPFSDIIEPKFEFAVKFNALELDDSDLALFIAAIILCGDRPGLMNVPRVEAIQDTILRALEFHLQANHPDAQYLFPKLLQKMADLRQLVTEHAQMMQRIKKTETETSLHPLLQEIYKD
Assay: Transfection determination: pM-hPPARδ/GAL4 chimeric receptor luciferase reporter, transient transfection in HEK-293 cells
Assay type: cell-based
Settings: 1 μM, luciferase read 24 hours after administration, GW501516 positive control
observable: Activation ability % (Activation of part of compounds for PPARδ)
Answer format: number, then unit.

Observe how each entry below is paired with its result.
[
  {
    "compound": "Cc1cc(SCc2ccnc(-c3ccc(Br)cc3)n2)ccc1OCC(=O)O [example 10]",
    "endpointValue": "108.55%"
  },
  {
    "compound": "Cc1cc(SCc2ccnc(-c3ccc(C(F)(F)F)cc3)n2)ccc1OCC(=O)O [example 7]",
    "endpointValue": "94.86%"
  },
  {
    "compound": "Cc1cc(SCc2ccnc(-c3ccc(Cl)cc3)n2)ccc1OC(C)(C)C(=O)O [example 17]",
    "endpointValue": "119.51%"
  },
  {
    "compound": "Cc1cc(SCc2ccnc(-c3ccc(F)cc3)n2)ccc1OC(C)(C)C(=O)O [example 18]",
    "endpointValue": "103.26%"
  },
  {
    "compound": "Cc1cc(SCc2ccnc(-c3ccc(Cl)cc3)n2)ccc1OCC(=O)O [example 9]",
    "endpointValue": "88.35%"
  }
]

Let us move to another entry and its Activation ability % (Activation of part of compounds for PPARδ).
Item under review: Cc1cc(SCc2ccnc(-c3ccc(F)cc3)n2)ccc1OCC(=O)O [example 8] . Reported Activation ability % (Activation of part of compounds for PPARδ)?
135.46%

Data origin: patent US8759355B2
